Tested on: HT-29 colon carcinoma cells
Assay Method Text: Proliferation (DNA synthesis, colorimetric BrdU-ELISA)
Assay type: cell-based
Measurement Setup: Homo sapiens; HT-29 cells, BrdU incorporation; averaged half maximal concentrations, no standard deviation; read-out: Anti-Prolif. IC50
Description: Human colon carcinoma cells HT-29 were purchased from ATCC and cultivated under standard conditions (37°C, 5% CO2, McCoy 5A medium, 10% fetal calf serum, penicillin, streptomycin). For experimentation, cells were seeded in cell culture dishes at appropriate density, stimulated and analysed as described in the following section. […]
Property Name: pIC50
Give only the number. pIC50 is defined as minus log10 of concentration in molar units.

Consider the following illustrative entries.
CCCCCC(=O)N[C@@H](CO)[C@H](O)C1=CCCC1    5.34
CCCCCC(=O)N[C@@H](CO)[C@H](O)/C1=C/CCCCCC1    5.51

Write down the reported pIC50 (system: HT-29 colon carcinoma cells) of CCCCCCCCCCCCC/C=C/[C@@H](O)[C@H](CO)NC(=O)CCCCC [Ceramide C6, reference compound]
5.40

Fill in pIC50 for CCCCCC(=O)N[C@@H](CO)[C@@H](O)c1ccc([N+](=O)[O-])cc1 tested with HT-29 colon carcinoma cells.
5.62

With HT-29 colon carcinoma cells as the test system, provide measured pIC50 for this compound: CC(C)(C)OC(=O)N1[C@H]([C@H](O)C2=CCCC2)COC1(C)C
5.17

Report the value of pIC50 obtained on HT-29 colon carcinoma cells for CC(C)(C)OC(=O)N1[C@H]([C@H](O)/C2=C/CCCCCC2)COC1(C)C .
5.49

The measurements presented in this section are drawn from patent EP1580187A1.
